Known IC50 of a selection of compounds
System: KRas-mediated phosphorylation of ERK in H460 cells
Assay: Inhibition of KRas-mediated phosphorylation of ERK (Cisbio HTRF pERK), H460 cells
Format: cell-based
Conditions: Homo sapiens, NCI-H460, HTRF pERK
measured endpoint: IC50 (nM)

[
  {
    "compound": "CCc1c(F)ccc2cc(O)cc(-c3ncc4c(N5CC6CCC(CCC(=O)N(C)C)(C6)C5)nc(OC[C@@]56CCCN5C[C@H](F)C6)nc4c3F)c12 (some centres unmarked)",
    "value reported": 112
  },
  {
    "compound": "C[C@@H]1C[C@@H]1c1c(Cl)cc(O)cc1-c1ncc2c(N3CCCC4(CNS(=O)(=O)N4)C3)nc(OC[C@@]34CCCN3C[C@H](F)C4)nc2c1F (stereo in doubt)",
    "value reported": 41
  },
  {
    "compound": "CCc1c(F)ccc2cc(O)cc(-c3ncc4c(N5CC6CCC(C5)C6C(N)=O)nc(OC[C@@]56CCCN5C[C@H](F)C6)nc4c3F)c12 (some centres unmarked)",
    "value reported": 173
  },
  {
    "compound": "C[C@@H]1C[C@@H]1c1c(Cl)cc(O)cc1-c1ncc2c(N3CCC[C@@](C)(O)C3)nc(OC[C@@]34CCCN3C/C(=C\\F)C4)nc2c1F",
    "value reported": 3
  },
  {
    "compound": "CCc1c(F)ccc2cc(O)cc(-c3ncc4c(N5CC6CCC(C5)C6CC(=O)NC)nc(OC[C@@]56CCCN5C[C@H](F)C6)nc4c3F)c12 (some centres unmarked)",
    "value reported": 1990
  },
  {
    "compound": "C[C@@H]1C[C@@H]1c1c(Cl)cc2[nH]ncc2c1-c1ncc2c(N3CCC[C@]4(C3)NC(=O)NC4=O)nc(OCC34CCCN3CCC4)nc2c1F (atropisomer, axis not shown)",
    "value reported": 7040
  },
  {
    "compound": "CCc1c(F)ccc2cc(O)cc(-c3ncc4c(N5CC6CCC(C5)C6(O)C(F)(F)F)nc(OC[C@@]56CCCN5C[C@H](F)C6)nc4c3F)c12 (some centres unmarked)",
    "value reported": 162
  },
  {
    "compound": "CCc1c(F)ccc2cc(O)cc(-c3ncc4c(N5CC6CCC(C5)C6C(=O)N(C)C)nc(OC[C@@]56CCCN5C[C@H](F)C6)nc4c3F)c12 (some centres unmarked)",
    "value reported": 7
  },
  {
    "compound": "CCCCN(CCCC)C(=O)OC[C@@H]1CC[C@@]2(COc3nc(N4CCC[C@@](C)(O)C4)c4cnc(-c5cc(O)cc6ccc(F)c(CC)c56)c(F)c4n3)CCCN12",
    "value reported": 194
  },
  {
    "compound": "CCc1cccc2cc3[nH]ncc3c(-c3ncc4c(N5CCCC6(CNC(=O)N6)C5)nc(OC[C@@]56CCCN5C[C@H](F)C6)nc4c3F)c12 (some centres unmarked)",
    "value reported": 661
  },
  {
    "compound": "Oc1cc(-c2ncc3c(N4CCCC5(CCO5)C4)nc(OC[C@@]45CCCN4C[C@H](F)C5)nc3c2F)c2c(Cl)c(F)ccc2c1 (some centres unmarked)",
    "value reported": 10
  }
]

Source listed as patent US20260015350A1.
